- Tested on: Escherichia coli
- Assay Details: Disc diffusion antimicrobial susceptibility test, Escherichia coli
- Type: cell-based
- Set-up: key: -: no growth of the organism
- Condition Set: solution transferred to disc 600 mg cm^−3
Observable: Inhibition diameter

Worked examples follow.
compound="CC(C)OC(=O)[C@@H](N)[C@@H](C)O.COc1ccc2cc([C@H](C)C(=O)O)ccc2c1 [[L-ThrOiPr][NAP], L-threonine isopropyl ester naproxenate]" measured=-
compound="CC(C)Cc1ccc(C(C)C(=O)O)cc1.CCC(C)C(N)C(=O)OC(C)C (mixture of isomers) [[L-IleOiPr][IBU]]" measured="7.1 ± 0.2 mm"
compound="CC(C)Cc1ccc(C(C)C(=O)O)cc1.CC(C)OC(=O)[C@@H](N)[C@@H](C)O [[L-ThrOiPr][IBU], L-threonine isopropyl ester ibuprofenate]" measured=-
compound="CC(C)OC(=O)[C@@H](N)C(C)C.COc1ccc2cc([C@H](C)C(=O)O)ccc2c1 [[L-ValOiPr][NAP]]" measured=-
compound="CC(C(=O)O)c1cccc(C(=O)c2ccccc2)c1.CC(C)OC(=O)C(N)C(C)C (mixture of isomers) [[L-ValOiPr][KETO]]" measured="7.6 ± 0.3 mm"

IN: Name the reported Inhibition diameter value associated with the compound CC(C(=O)O)c1cccc(C(=O)c2ccccc2)c1.CC(C)OC(=O)C(N)C(C)O (mixture of isomers) [[L-ThrOiPr][KETO]]
OUT: -

IN: Record: CC(C)Cc1ccc(C(C)C(=O)O)cc1 (racemic) [IBU, (R,S)-ibuprofen, reference compound]
OUT: -

IN: Try this compound too: CC(C)Cc1ccc(C(C)C(=O)O)cc1.CC(C)OC(=O)C(N)C(C)C (mixture of isomers) [[L-ValOiPr][IBU]]
OUT: 6.8 ± 0.5 mm
